- Test system: PSEUDOMONAS CEPACIA 296I
- Assay Protocol: In vitro antibacterial activity, MIC, BHI agar dilution
- Format: cell-based
- Experimental Context: P. cepacia 296I, unit assumed

Compound	MIC
CC[C@H]1OC(=O)[C@H](C)C(=O)[C@H](C)[C@@H](O[C@@H]2O[C@H](C)C[C@H](N(C)C)[C@H]2O)[C@](C)(OC)C[C@@H](C)C2=NC[C@H](COCc3ccc(OC)cc3)N3C(=O)O[C@@]1(C)[C@H]3[C@H]2C	12.5 µg/mL
CC[C@H]1OC(=O)[C@H](C)C(=O)[C@H](C)[C@@H](O[C@@H]2O[C@H](C)C[C@H](N(C)C)[C@H]2O)[C@](C)(OC)C[C@@H](C)C2=NC3CN(CCc4ccc(NC(C)=O)cc4)CC3N3C(=O)O[C@@]1(C)[C@H]3[C@H]2C (stereo partly drawn)	> 100 µg/mL
CCOC(=O)CCN1CC2N=C3C(C)CC(C)(OC)C(OC4OC(C)CC(N(C)C)C4O)C(C)C(=O)C(C)C(=O)OC(CC)C4(C)OC(=O)N(C2C1)C4C3C (stereo not drawn)	> 100 µg/mL
CC[C@H]1OC(=O)[C@H](C)C(=O)[C@H](C)[C@@H](O[C@@H]2O[C@H](C)C[C@H](N(C)C)[C@H]2O)[C@](C)(OC)C[C@@H](C)C2=NC[C@@H](CCCc3ccccc3)N3C(=O)O[C@@]1(C)[C@H]3[C@H]2C	50 µg/mL
CC[C@H]1OC(=O)[C@H](C)C(=O)[C@H](C)[C@@H](O[C@@H]2O[C@H](C)C[C@H](N(C)C)[C@H]2O)[C@](C)(OC)C[C@@H](C)C2=N[C@H](CN(C)Cc3ccccc3)CN3C(=O)O[C@@]1(C)[C@H]3[C@H]2C	> 100 µg/mL
CC[C@H]1OC(=O)[C@H](C)C(=O)[C@H](C)[C@@H](O[C@@H]2O[C@H](C)C[C@H](N(C)C)[C@H]2O)[C@](C)(OC)C[C@@H](C)C2=NC3CN(C)CC3N3C(=O)O[C@@]1(C)[C@H]3[C@H]2C (stereo partly drawn)	> 100 µg/mL
CCC1OC(=O)C(C)C(=O)C(C)C(OC2OC(C)CC(N(C)C)C2O)C(C)(OC)CC(C)C2=NC(CN(C)C)CN3C(=O)OC1(C)C3C2C (stereo not drawn)	> 100 µg/mL
CC[C@H]1OC(=O)[C@H](C)C(=O)[C@H](C)[C@@H](O[C@@H]2O[C@H](C)C[C@H](N(C)C)[C@H]2O)[C@](C)(OC)C[C@@H](C)C2=NC3CN(CCc4ccc([N+](=O)[O-])cc4)CC3N3C(=O)O[C@@]1(C)[C@H]3[C@H]2C (stereo partly drawn)	> 100 µg/mL
CC[C@H]1OC(=O)[C@H](C)C(=O)[C@H](C)[C@@H](O[C@@H]2O[C@H](C)C[C@H](N(C)C)[C@H]2O)[C@](C)(OC)C[C@@H](C)C2=NC3COCC3N3C(=O)O[C@@]1(C)[C@H]3[C@H]2C (stereo partly drawn)	> 100 µg/mL

---

- Test system: STREPTOCOCCUS BOVIS A-5169
- Assay Protocol: In vitro antibacterial activity, MIC, BHI agar dilution
- Assay type: cell-based
- Experimental Context: S. bovis A-5169, unit assumed

Molecule	MIC
CC[C@H]1OC(=O)[C@H](C)C(=O)[C@H](C)[C@@H](O[C@@H]2O[C@H](C)C[C@H](N(C)C)[C@H]2O)[C@](C)(OC)C[C@@H](C)C2=N[C@H](COCc3ccc(C#N)cc3)CN3C(=O)O[C@@]1(C)[C@H]3[C@H]2C	≤ 5 ng/mL
CC[C@H]1OC(=O)[C@H](C)C(=O)[C@H](C)[C@@H](O[C@@H]2O[C@H](C)C[C@H](N(C)C)[C@H]2O)[C@](C)(OC)C[C@@H](C)C2=N[C@H](COCc3cccc(Br)c3)CN3C(=O)O[C@@]1(C)[C@H]3[C@H]2C	≤ 5 ng/mL
CC[C@H]1OC(=O)[C@H](C)C(=O)[C@H](C)[C@@H](O[C@@H]2O[C@H](C)C[C@H](N(C)C)[C@H]2O)[C@](C)(OC)C[C@@H](C)C2=NC3CCCCC3N3C(=O)O[C@@]1(C)[C@H]3[C@H]2C (stereo partly shown)	≤ 5 ng/mL
CC[C@H]1OC(=O)[C@H](C)C(=O)[C@H](C)[C@@H](O[C@@H]2O[C@H](C)C[C@H](N(C)C)[C@H]2O)[C@](C)(OC)C[C@@H](C)C2=NC[C@H](Cc3ccc(O)cc3)N3C(=O)O[C@@]1(C)[C@H]3[C@H]2C	10 ng/mL

---

- System: STAPHYLOCOCCUS AUREUS CMX 553
- Assay Protocol: In vitro antibacterial activity, MIC, BHI agar dilution
- Format: cell-based
- Experimental Context: S. aureus CMX 553, unit assumed

Compound	Measurement Target	MIC, µg/mL
CC[C@H]1OC(=O)[C@H](C)C(=O)[C@H](C)[C@@H](O[C@@H]2O[C@H](C)C[C@H](N(C)C)[C@H]2O)[C@](C)(OC)C[C@@H](C)C2=NC[C@@H](COCc3ccccc3)N3C(=O)O[C@@]1(C)[C@H]3[C@H]2C	STAPHYLOCOCCUS AUREUS CMX 553	0.1
CC[C@H]1OC(=O)[C@H](C)C(=O)[C@H](C)[C@@H](O[C@@H]2O[C@H](C)C[C@H](N(C)C)[C@H]2O)[C@](C)(OC)C[C@@H](C)C2=NC3CN(CC)CC3N3C(=O)O[C@@]1(C)[C@H]3[C@H]2C (some centres unmarked)	STAPHYLOCOCCUS AUREUS CMX 553	1.56
CCC1OC(=O)C(C)C(=O)C(C)C(OC2OC(C)CC(N(C)C)C2O)C(C)(OC)CC(C)C2=NCC(CCc3ccccc3)N3C(=O)OC1(C)C3C2C (centres unmarked)	STAPHYLOCOCCUS AUREUS CMX 553	0.39
CC[C@H]1OC(=O)[C@H](C)C(=O)[C@H](C)[C@@H](O[C@@H]2O[C@H](C)C[C@H](N(C)C)[C@H]2O)[C@](C)(OC)C[C@@H](C)C2=NCC(COC(=O)c3ccnc4ccccc34)N3C(=O)O[C@@]1(C)[C@H]3[C@H]2C (some centres unmarked)	STAPHYLOCOCCUS AUREUS CMX 553	0.05
CCC1OC(=O)C(C)C(=O)C(C)C(OC2OC(C)CC(N(C)C)C2O)C(C)(OC)CC(C)C2=NC(CN(C)C)CN3C(=O)OC1(C)C3C2C (centres unmarked)	STAPHYLOCOCCUS AUREUS CMX 553	0.39

---

- System: STAPHYLOCOCCUS AUREUS CMX 553
- Assay Protocol: In vitro antibacterial activity, MIC, BHI agar dilution
- Assay type: cell-based
- Experimental Context: S. aureus CMX 553, unit assumed

Compound	MIC [µg/mL]
CC[C@H]1OC(=O)[C@H](C)C(=O)[C@H](C)[C@@H](O[C@@H]2O[C@H](C)C[C@H](N(C)C)[C@H]2O)[C@](C)(OC)C[C@@H](C)C2=NCC(COC(=O)c3cccc4[nH]ccc34)N3C(=O)O[C@@]1(C)[C@H]3[C@H]2C (some centres unmarked) [Example 144]	0.1
CC[C@H]1OC(=O)[C@H](C)C(=O)[C@H](C)[C@@H](O[C@@H]2O[C@H](C)C[C@H](N(C)C)[C@H]2O)[C@](C)(OC)C[C@@H](C)C2=NC[C@H](COCc3ccc(OC)cc3)N3C(=O)O[C@@]1(C)[C@H]3[C@H]2C [Example 62]	0.2
CC[C@H]1OC(=O)[C@H](C)C(=O)[C@H](C)[C@@H](O[C@@H]2O[C@H](C)C[C@H](N(C)C)[C@H]2O)[C@](C)(OC)C[C@@H](C)C2=N[C@@H]3CNC[C@@H]3N3C(=O)O[C@@]1(C)[C@H]3[C@H]2C [Example 19]	0.39
CC[C@H]1OC(=O)[C@H](C)C(=O)[C@H](C)[C@@H](O[C@@H]2O[C@H](C)C[C@H](N(C)C)[C@H]2O)[C@](C)(OC)C[C@@H](C)C2=N[C@@H]3CCC[C@@H]3N3C(=O)O[C@@]1(C)[C@H]3[C@H]2C [Example 17]	0.78
CC[C@H]1OC(=O)[C@H](C)C(=O)[C@H](C)[C@@H](O[C@@H]2O[C@H](C)C[C@H](N(C)C)[C@H]2O)[C@](C)(OC)C[C@@H](C)C2=N[C@H](C)[C@H](C)N3C(=O)O[C@@]1(C)[C@H]3[C@H]2C [Example 10]	0.39
CC[C@H]1OC(=O)[C@H](C)C(=O)[C@H](C)[C@@H](O[C@@H]2O[C@H](C)C[C@H](N(C)C)[C@H]2O)[C@](C)(OC)C[C@@H](C)C2=N[C@@H]3CN(CCc4ccccc4)C[C@@H]3N3C(=O)O[C@@]1(C)[C@H]3[C@H]2C [Example 23]	0.2
CC[C@H]1OC(=O)[C@H](C)C(=O)[C@H](C)[C@@H](O[C@@H]2O[C@H](C)C[C@H](N(C)C)[C@H]2O)[C@](C)(OC)C[C@@H](C)C2=N[C@H](Cc3ccccc3)CN3C(=O)O[C@@]1(C)[C@H]3[C@H]2C [Example 3]	0.39
CCC1OC(=O)C(C)C(=O)C(C)C(OC2OC(C)CC(N(C)C)C2O)C(C)(OC)CC(C)C2=NC(COCc3cc(OC)cc(OC)c3)CN3C(=O)OC1(C)C3C2C (centres unmarked) [Example 100]	0.1
